src = paper PMC8151509

Molecular target: C1qCLR_nc2 (wild type, devoid of the additional GPP triplets), P02745;P02747
Sequence (chain, as listed by the source, chain 1 of 3): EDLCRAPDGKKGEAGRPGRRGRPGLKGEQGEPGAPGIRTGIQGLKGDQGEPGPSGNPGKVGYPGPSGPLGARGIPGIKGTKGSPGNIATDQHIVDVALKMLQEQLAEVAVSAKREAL
Sequence (chain, as listed by the source, chain 2 of 3): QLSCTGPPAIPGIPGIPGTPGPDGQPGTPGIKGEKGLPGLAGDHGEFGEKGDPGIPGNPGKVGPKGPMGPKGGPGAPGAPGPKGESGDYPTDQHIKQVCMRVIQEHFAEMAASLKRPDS
Sequence (chain, as listed by the source, chain 3 of 3): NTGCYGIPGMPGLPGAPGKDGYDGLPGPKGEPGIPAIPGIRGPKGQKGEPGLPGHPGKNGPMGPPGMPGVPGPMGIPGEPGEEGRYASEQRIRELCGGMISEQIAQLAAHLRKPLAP
Test: SPR
Settings: chain shown with the change; immobilized C1qCLR_nc2; parent: est. 100; read off a plot
assayReadout: percent of parent (% of LAIR-1 WT binding)

binder | measuredResult
LAIR-1 Ig-like domain, wild type, Q6GTX8 P107R (protein) QEEDLPRPSISAEPGTVIPLGSHVTFVCRGPVGVQTFRLERDSRSTYNDTEDVSQASPSESEARFRIDSVREGNAGLYRCIYYKPRKWSEQSDYLELLVKE | 60
LAIR-1 Ig-like domain, wild type, Q6GTX8 E72K (protein) QEEDLPRPSISAEPGTVIPLGSHVTFVCRGPVGVQTFRLERDSRSTYNDTKDVSQASPSESEARFRIDSVREGNAGLYRCIYYKPPKWSEQSDYLELLVKE | 21
LAIR-1 Ig-like domain, wild type, Q6GTX8 I102L (protein) QEEDLPRPSISAEPGTVIPLGSHVTFVCRGPVGVQTFRLERDSRSTYNDTEDVSQASPSESEARFRIDSVREGNAGLYRCLYYKPPKWSEQSDYLELLVKE | 21
LAIR-1 Ig-like domain, wild type, Q6GTX8 E111K (protein) QEEDLPRPSISAEPGTVIPLGSHVTFVCRGPVGVQTFRLERDSRSTYNDTEDVSQASPSESEARFRIDSVREGNAGLYRCIYYKPPKWSKQSDYLELLVKE | 36
LAIR-1 Ig-like domain, wild type, Q6GTX8 E61A (protein) QEEDLPRPSISAEPGTVIPLGSHVTFVCRGPVGVQTFRLARDSRSTYNDTEDVSQASPSESEARFRIDSVREGNAGLYRCIYYKPPKWSEQSDYLELLVKE | 11
